- Test system: OVCAR-8 ovarian
- assayOverview: NCI tumour cell line growth inhibition, 48 h
measurementType: TGI (µM)

molecule=CCc1ccccc1NC(=O)/C(CC(=O)c1c(C)n([O-])c2ccccc2[n+]1=O)=N\NS(=O)(=O)c1ccc(C)cc1 qualifiersign=> reportedresult=100
molecule=Cn1c(=O)n(-c2c3ccccc3c(Cl)c3ccccc23)n(C(C)(C)C)c1=O qualifiersign=> reportedresult=100
molecule=O=C1CCC(=O)N1CNc1ccc2c(c1)Sc1ccccc1O2 qualifiersign== reportedresult=68.5
molecule="CC12CN(CC[N+](C)(C)C)CC1(C)C1CCC2O1 (stereo not given)" qualifiersign=> reportedresult=100
molecule="CCC1(O)CC(OC2CC(N(C)C)C(OC3CC(O)C(OC4OC(C)C(=O)C=C4N)C(C)O3)C(C)O2)c2c(O)c3c(c(O)c2C1C(=O)OC)C(=O)c1cccc(O)c1C3=O (stereo not given)" qualifiersign== reportedresult=0.261
molecule=CC(=O)[CH-]C(=O)c1ccccc1.CC(=O)[CH-]C(=O)c1ccccc1.O=C([O-])C[O-].O=C([O-])C[O-].[Ti+4] qualifiersign=> reportedresult=100
molecule=CC1(C)CCC(=O)c2c(O)ccc(O)c21 qualifiersign=> reportedresult=100
molecule=C=C1C(=O)O[C@@H]2[C@H]1CC[C@H](C)[C@]1(O)CCC(=O)[C@@]21C qualifiersign=> reportedresult=10
molecule="O=C(O)C(Cc1ccc(O)cn1)NC(=O)C(F)(F)F (stereo not given)" qualifiersign=> reportedresult=100
molecule=C/C(=N\O)c1sc(-n2nc(-c3ccccc3)cc2-c2ccccc2)nc1C qualifiersign== reportedresult=18.1
molecule="O=C(CCl)N1CCCCC1C1(c2cc3ccccc3[nH]2)OCCO1 (stereo not given)" qualifiersign== reportedresult=17.6
molecule=CCCCCCCCCOC(=S)NC qualifiersign== reportedresult=44.9
molecule="CCOC(=O)C12CCCC1(O)N(NC(=O)c1cccc(Cl)c1)C(C)=C2C(=O)OC (stereo not given)" qualifiersign=> reportedresult=100
molecule=Cc1ccc2c(c1)C(=O)/C(=C1/CCc3ccc(C)cc31)C2 qualifiersign=> reportedresult=100
molecule=CCCCCCCCN(CCCCCCCC)C(=N)c1ccnc2ccccc12 qualifiersign== reportedresult=3.27
molecule=CC(C)(Cl)CCC1=C(Cl)C(=O)c2ccccc2C1=O qualifiersign== reportedresult=5.03
molecule=CC(=O)N1NC(c2ccccc2)=CC(=O)/C1=C/C(=O)c1ccccc1 qualifiersign=> reportedresult=100
molecule="CCN1C(C)=NC2C(=O)c3ccccc3C(=O)C21 (stereo not given)" qualifiersign=> reportedresult=100
molecule="COC(=O)c1ccccc1C1CN=NC12Cc1c(C)cc(C)cc1C2=O (stereo not given)" qualifiersign=> reportedresult=100
molecule=COc1ccc(-c2cc(-c3ccc(Nc4nc(Nc5ccc(Cl)cc5)nc(Nc5ccc(Cl)cc5)n4)cc3)no2)cc1 qualifiersign== reportedresult=55.3
